# tested.system: T1, hPRLR.mFc (soluble dimeric human PRLR) (human)
# T1 construct: dimeric PRLR construct
# T1 chain: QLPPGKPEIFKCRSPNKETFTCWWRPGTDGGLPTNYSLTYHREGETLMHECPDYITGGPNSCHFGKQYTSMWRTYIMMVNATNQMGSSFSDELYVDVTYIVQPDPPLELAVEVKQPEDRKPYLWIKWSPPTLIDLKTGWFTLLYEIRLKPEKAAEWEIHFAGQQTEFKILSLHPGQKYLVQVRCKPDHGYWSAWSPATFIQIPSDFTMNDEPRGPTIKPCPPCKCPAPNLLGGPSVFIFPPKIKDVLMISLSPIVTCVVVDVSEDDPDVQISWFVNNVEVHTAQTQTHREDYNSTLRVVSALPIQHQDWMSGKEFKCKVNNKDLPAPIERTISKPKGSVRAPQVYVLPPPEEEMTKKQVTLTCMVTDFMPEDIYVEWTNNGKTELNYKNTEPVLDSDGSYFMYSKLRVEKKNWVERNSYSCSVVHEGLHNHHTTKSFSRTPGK
# experiment.summary: SPR (Biacore), antibody capture, 37 C
In this section we review reported koff values for a set of binders.
Record the value in s⁻¹, omitting the unit from your answer.

binder	result.number
H1H6790P (antibody, human IgG1, V domains shown, human IgG1 Fc (H1H)) VH: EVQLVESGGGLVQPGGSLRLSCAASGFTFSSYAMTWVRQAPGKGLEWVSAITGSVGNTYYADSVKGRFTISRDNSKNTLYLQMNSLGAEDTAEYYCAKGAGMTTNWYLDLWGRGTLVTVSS VL: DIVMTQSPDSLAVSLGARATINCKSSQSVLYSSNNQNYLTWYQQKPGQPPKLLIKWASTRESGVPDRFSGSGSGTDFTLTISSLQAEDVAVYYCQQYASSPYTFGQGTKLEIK	0.000198

For the next question, use this binder.
(Q) Give the reported value of koff for this record: H1H6793P (antibody, human IgG1, V domains shown, human IgG1 Fc (H1H)) VH: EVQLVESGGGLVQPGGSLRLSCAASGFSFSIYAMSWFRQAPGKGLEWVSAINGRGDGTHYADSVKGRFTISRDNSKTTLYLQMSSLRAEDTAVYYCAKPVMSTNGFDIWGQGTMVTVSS VL: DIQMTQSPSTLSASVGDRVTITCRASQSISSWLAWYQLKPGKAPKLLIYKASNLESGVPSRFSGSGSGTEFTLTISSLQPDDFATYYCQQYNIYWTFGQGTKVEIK
(A) 0.000142
